Target protein (sequence): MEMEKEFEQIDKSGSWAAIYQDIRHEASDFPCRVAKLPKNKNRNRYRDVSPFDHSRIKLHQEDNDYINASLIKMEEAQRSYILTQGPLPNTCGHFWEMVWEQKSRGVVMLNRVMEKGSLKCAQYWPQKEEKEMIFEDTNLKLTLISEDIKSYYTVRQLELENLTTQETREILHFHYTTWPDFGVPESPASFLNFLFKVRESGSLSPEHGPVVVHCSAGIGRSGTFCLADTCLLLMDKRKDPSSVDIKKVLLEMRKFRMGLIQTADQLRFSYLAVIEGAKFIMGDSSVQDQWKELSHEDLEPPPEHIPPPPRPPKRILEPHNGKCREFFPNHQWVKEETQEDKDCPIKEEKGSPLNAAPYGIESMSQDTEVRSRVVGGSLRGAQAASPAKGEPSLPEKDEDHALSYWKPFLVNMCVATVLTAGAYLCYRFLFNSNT
Across several studies, compounds have been characterized by their Ki on the protein given by its sequence; a selection follows.
measurement.kind: Ki (µM)

| compound | result.modifier | reading |
| --- | --- | --- |
| Cc1csc(C(=O)O)c1OCC(=O)O | > | 1000 |
| O=C(O)C(=O)N(c1ccccc1C(=O)O)c1ccccc1N1CCCC(CO)C1 (stereo not drawn) | = | 20 |
| CC(=O)NC(Cc1ccc(N(C(=O)C(=O)O)c2ccccc2C(=O)O)c2ccccc12)C(=O)NCCO (stereo not drawn) | = | 12.6 |
| CC(C)C(NC1=NS(=O)(=O)c2ccccc21)C(=O)NCC(NC(=O)c1n[nH]c2ccc([N+](=O)[O-])cc12)C(=O)NC(CCCCNC(=O)CCCC[C@@H]1SCC2NC(=O)NC21)C(N)=O (stereo partly drawn) | = | 0.25 |
| CCCCCNC(=O)[C@H](Cc1ccc(OCC(=O)O)c(C(=O)O)c1)NC(=O)[C@H](Cc1ccccc1)NC(=O)CCC(=O)O | = | 0.22 |
| O=C(O)C(=O)Nc1sc2c(c1C(=O)O)CCNC2 | = | 11.5 |
| CCCCCNC(=O)[C@H](Cc1ccc(N(C(=O)C(=O)O)c2ccccc2C(=O)O)c(/C=C/C(N)=O)c1)NC(=O)OC(C)(C)C | = | 1.26 |
| COC(=O)c1c(O)cccc1OCCNc1cccc(-c2cc(C(=O)O)no2)c1 | = | 50.1 |
